# SYSTEM NAME: Ima1p (Saccharomyces cerevisiae, UniProt P53051)
# Sequence (P53051 whole entry): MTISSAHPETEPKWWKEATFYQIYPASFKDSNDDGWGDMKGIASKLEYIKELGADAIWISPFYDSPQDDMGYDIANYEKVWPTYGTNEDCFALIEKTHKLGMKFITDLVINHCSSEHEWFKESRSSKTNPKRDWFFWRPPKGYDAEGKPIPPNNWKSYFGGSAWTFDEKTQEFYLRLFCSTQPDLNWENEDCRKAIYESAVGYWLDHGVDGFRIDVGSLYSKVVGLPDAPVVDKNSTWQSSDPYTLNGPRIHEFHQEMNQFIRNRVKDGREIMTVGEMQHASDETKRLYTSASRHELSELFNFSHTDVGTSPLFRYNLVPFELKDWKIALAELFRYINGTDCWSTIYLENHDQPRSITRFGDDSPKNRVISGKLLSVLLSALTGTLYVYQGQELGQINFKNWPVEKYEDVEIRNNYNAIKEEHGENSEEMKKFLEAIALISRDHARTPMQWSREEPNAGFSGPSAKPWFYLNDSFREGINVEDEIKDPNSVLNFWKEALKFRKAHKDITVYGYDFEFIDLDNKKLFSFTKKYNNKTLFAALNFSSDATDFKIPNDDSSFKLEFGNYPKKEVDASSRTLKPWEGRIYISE
# PROCEDURE TEXT: Substrate specificity of purified isomaltase
# Format: biochemical
# REPORTED CONDITIONS: 100 mM substrate (pNPG 5 mM), citrate–potassium phosphate buffer, pH 7, 30 °C
Could you please report measured Specific activities for the items listed next?
Output spec: scalar in µmol/min/mg, unitless text.

// Specific activities lookup, key: `OC[C@H]1O[C@@](CO)(O[C@H]2O[C@H](CO)[C@@H](O)[C@H](O)[C@H]2O)[C@@H](O[C@H]2O[C@H](CO)[C@@H](O)[C@H](O)[C@H]2O)[C@@H]1O` 0

Try the compound `O=C(CO)[C@@H](O[C@H]1O[C@H](CO)[C@@H](O)[C@H](O)[C@H]1O)[C@H](O)[C@H](O)CO` 4.3

Now the compound `OC[C@H]1O[C@H](O[C@H]2[C@H](O)[C@@H](O)[C@H](O)O[C@@H]2CO)[C@H](O)[C@@H](O)[C@@H]1O` 0

Next record, please: `OC[C@H]1O[C@H](O[C@@H]2[C@@H](O)[C@H](O)[C@@H](CO)O[C@@H]2O)[C@H](O)[C@@H](O)[C@@H]1O` 7.7

Same for OC[C@H]1O[C@H](OC[C@H]2O[C@H](O[C@H]3[C@H](O)[C@@H](O)C(O)O[C@@H]3CO)[C@H](O)[C@@H](O)[C@@H]2O)[C@H](O)[C@@H](O)[C@@H]1O (some centres unmarked) 3.1
